Numbers sourced from ChEMBL document CHEMBL1961873.

Recorded inhibition for the following compounds
# assayed-target: 5'-AMP-activated protein kinase catalytic subunit alpha-2 (Homo sapiens);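 also: mean inhibition measured on the AMPK complex of alpha2, beta1 and gamma1 subunits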
# details: at 0.1 µM
# Description: GSK_PKIS: AMPKA2 (A2B1G1) mean inhibition at 0.1 uM [Nanosyn]
The reply should be a number in %, with the unit left off.

Recall the reported inhibition of CN(c1ccc(NC(=O)NCCN2CCOCC2)cc1)c1ccnc(Nc2ccc(CS(C)(=O)=O)cc2)n1 on 5'-AMP-activated protein kinase catalytic subunit alpha-2 (Homo sapiens) and write it down.
0.93

---

# assayed-target: Serine/threonine-protein kinase MRCK alpha (Homo sapiens) (UniProt Q5VT25);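 also: each inhibition figure is a mean value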
# Sequence (Q5VT25 whole entry): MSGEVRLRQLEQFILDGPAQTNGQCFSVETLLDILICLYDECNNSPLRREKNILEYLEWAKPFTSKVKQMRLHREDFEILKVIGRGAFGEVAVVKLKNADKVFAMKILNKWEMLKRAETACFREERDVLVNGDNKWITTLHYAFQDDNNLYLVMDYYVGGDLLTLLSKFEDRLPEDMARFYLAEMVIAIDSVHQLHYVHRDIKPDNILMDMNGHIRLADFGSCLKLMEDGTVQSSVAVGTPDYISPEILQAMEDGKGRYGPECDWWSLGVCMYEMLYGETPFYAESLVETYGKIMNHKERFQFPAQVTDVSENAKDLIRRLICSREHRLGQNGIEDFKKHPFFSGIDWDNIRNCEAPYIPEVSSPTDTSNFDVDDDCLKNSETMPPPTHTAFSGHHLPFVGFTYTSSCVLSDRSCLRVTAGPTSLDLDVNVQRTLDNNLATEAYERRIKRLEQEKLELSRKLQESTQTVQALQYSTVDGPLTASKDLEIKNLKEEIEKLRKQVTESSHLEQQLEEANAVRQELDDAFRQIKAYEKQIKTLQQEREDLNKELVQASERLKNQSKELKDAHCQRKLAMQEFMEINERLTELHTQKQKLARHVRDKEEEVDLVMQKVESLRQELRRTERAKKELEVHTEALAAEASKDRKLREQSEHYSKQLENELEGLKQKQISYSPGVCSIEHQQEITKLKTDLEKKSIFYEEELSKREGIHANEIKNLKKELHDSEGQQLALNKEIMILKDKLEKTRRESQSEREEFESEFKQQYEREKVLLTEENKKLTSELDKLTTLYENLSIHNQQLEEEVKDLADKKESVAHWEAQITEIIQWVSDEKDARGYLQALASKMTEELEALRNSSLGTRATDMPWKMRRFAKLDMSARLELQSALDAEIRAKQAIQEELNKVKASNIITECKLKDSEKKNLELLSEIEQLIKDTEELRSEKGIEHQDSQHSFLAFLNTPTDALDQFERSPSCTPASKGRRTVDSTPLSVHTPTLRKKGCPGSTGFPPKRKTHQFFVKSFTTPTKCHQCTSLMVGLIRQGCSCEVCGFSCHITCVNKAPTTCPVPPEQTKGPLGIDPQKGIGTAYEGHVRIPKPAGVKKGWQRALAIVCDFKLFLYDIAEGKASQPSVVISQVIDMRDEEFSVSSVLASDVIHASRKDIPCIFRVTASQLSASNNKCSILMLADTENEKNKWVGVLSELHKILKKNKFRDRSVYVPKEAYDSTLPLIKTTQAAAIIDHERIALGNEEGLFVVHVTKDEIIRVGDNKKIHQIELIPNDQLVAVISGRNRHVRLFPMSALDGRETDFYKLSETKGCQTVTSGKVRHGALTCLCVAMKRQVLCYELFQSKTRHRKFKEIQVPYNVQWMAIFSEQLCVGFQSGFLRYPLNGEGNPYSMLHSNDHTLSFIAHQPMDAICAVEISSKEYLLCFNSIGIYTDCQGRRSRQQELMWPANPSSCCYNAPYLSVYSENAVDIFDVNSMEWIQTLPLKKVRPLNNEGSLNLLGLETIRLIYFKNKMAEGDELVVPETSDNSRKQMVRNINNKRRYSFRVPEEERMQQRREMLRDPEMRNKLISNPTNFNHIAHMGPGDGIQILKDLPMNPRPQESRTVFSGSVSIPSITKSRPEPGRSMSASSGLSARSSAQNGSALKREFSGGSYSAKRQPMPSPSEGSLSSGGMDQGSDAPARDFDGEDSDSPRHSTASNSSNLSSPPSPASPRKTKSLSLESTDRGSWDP
# details: at 0.1 µM
reported-endpoint: inhibition (%)
The reply should be a number in %, with the unit left off.

# example entries with known answers
>>> observed_value("NS(=O)(=O)c1cccc(N/C=C2\\C(=O)Nc3ccccc32)c1")
0.02
>>> observed_value("NS(=O)(=O)c1ccc(N/N=C2\\C(=O)Nc3ccc(C(=O)NCc4ccncc4)cc32)cc1")
0.07
>>> observed_value("NC(=O)c1ccc2c(-c3ccnc(NCCCO)n3)c(-c3ccc(F)cc3)nn2c1")
0.04
>>> observed_value("O=C(O[C@H]1CN[C@H](C#Cc2cc3ncnc(Nc4ccc5c(ccn5Cc5cc(F)ccc5F)c4)c3s2)C1)N1CCOCC1")
-0.29
>>> observed_value("COc1ccc2ncn(-c3cc(O[C@H](C)c4ccccc4C(F)(F)F)c(C(N)=O)s3)c2c1")
-0.19
>>> observed_value("CCOc1ccc2c(-c3ccnc(Nc4cc(OC)cc(C(F)(F)F)c4)n3)cnn2n1")
-0.76
>>> observed_value("Cn1c(-c2nonc2N)nc2cnccc21")
1.33
>>> observed_value("FC(F)(F)CNc1nccc(-c2cnn3ncccc23)n1")
-2.84
>>> observed_value("Cc1cc(O)cc(C)c1/C=C/c1cncc(C(=O)OC(C)(C)C)c1")
0.35
>>> observed_value("COc1cccc(-n2ncc3c(N/N=C/c4ccc(C(=O)NCCN(C)C)cc4)ncnc32)c1")
2.1

Recall the reported inhibition of CC1=C(C(=O)Nc2ccc3[nH]nc(C)c3c2)C(c2ccc(C(F)(F)F)cc2)CC(=O)N1 (stereo not drawn) on Serine/threonine-protein kinase MRCK alpha (Homo sapiens) (UniProt Q5VT25) and write it down.
1.9

Recall the reported inhibition of CC(C)c1ccc(-c2cc(-c3c[nH]nc3-c3ccccn3)ccn2)cc1 on Serine/threonine-protein kinase MRCK alpha (Homo sapiens) (UniProt Q5VT25) and write it down.
-0.14

Recall the reported inhibition of COc1cc2c(cc1Nc1nc(Nc3cccc(F)c3C(N)=O)c3cc[nH]c3n1)N(C(=O)CN1CCN(C(C)C)CC1)CC2 on Serine/threonine-protein kinase MRCK alpha (Homo sapiens) (UniProt Q5VT25) and write it down.
6.36

Recall the reported inhibition of O=C(O[C@H]1CN[C@H](C#Cc2cc3ncnc(Nc4ccc5c(cnn5Cc5ccccc5)c4)c3s2)C1)N1CCOCC1 on Serine/threonine-protein kinase MRCK alpha (Homo sapiens) (UniProt Q5VT25) and write it down.
0.53

Recall the reported inhibition of CNC(=O)c1ncccc1Nc1nc(Nc2cc3c(cc2OC)CCCN3C(=O)CN(C)C)nc2[nH]ccc12 on Serine/threonine-protein kinase MRCK alpha (Homo sapiens) (UniProt Q5VT25) and write it down.
-0.11

Recall the reported inhibition of NS(=O)(=O)c1ccc(N/N=C2\C(=O)Nc3cccc(CCc4ccncc4)c32)cc1 on Serine/threonine-protein kinase MRCK alpha (Homo sapiens) (UniProt Q5VT25) and write it down.
-0.78

Recall the reported inhibition of CCN1CCC(C(=O)Nc2n[nH]c3nnc(-c4cccc(F)c4F)cc23)CC1 on Serine/threonine-protein kinase MRCK alpha (Homo sapiens) (UniProt Q5VT25) and write it down.
-1.78

Recall the reported inhibition of O=C1Nc2ccccc2/C1=C1\CCc2cc(O)ccc21 on Serine/threonine-protein kinase MRCK alpha (Homo sapiens) (UniProt Q5VT25) and write it down.
0.14

Recall the reported inhibition of Nc1ncnc2occ(-c3ccc(NC(=O)Nc4cc(C(F)(F)F)ccc4F)cc3)c12 on Serine/threonine-protein kinase MRCK alpha (Homo sapiens) (UniProt Q5VT25) and write it down.
0.43

Recall the reported inhibition of COC(=O)Nc1nc2ccc(Oc3ccc(NC(=O)Nc4cc(C(F)(F)F)ccc4F)cc3)cc2s1 on Serine/threonine-protein kinase MRCK alpha (Homo sapiens) (UniProt Q5VT25) and write it down.
-0.38

Recall the reported inhibition of COC(=O)Nc1nc2cc(Oc3ccc(NC(=O)Nc4ccccc4)cc3)ccc2[nH]1 on Serine/threonine-protein kinase MRCK alpha (Homo sapiens) (UniProt Q5VT25) and write it down.
1.11

Recall the reported inhibition of COc1ccc(Nc2ncc(-c3ccccc3)o2)cc1OC on Serine/threonine-protein kinase MRCK alpha (Homo sapiens) (UniProt Q5VT25) and write it down.
0.45

Recall the reported inhibition of CS(=O)(=O)Nc1ccc(-c2ccc3c(NC(=O)C4CC4)n[nH]c3c2)cc1 on Serine/threonine-protein kinase MRCK alpha (Homo sapiens) (UniProt Q5VT25) and write it down.
-0.45

Recall the reported inhibition of CN1CCC(n2cnc(-c3ccc(F)cc3)c2-c2ccnc(NCCO)n2)CC1 on Serine/threonine-protein kinase MRCK alpha (Homo sapiens) (UniProt Q5VT25) and write it down.
0.14

Recall the reported inhibition of COc1c(C(N)=O)cc(-c2ccc(Cl)cc2)cc1-c1ccc(S(N)(=O)=O)cc1 on Serine/threonine-protein kinase MRCK alpha (Homo sapiens) (UniProt Q5VT25) and write it down.
5.11
